- System: MDA-MB-231 cells
- MEASUREMENT DESCRIPTION: Cell viability assay (MTT)
- Format: cell-based
- CONDITIONS: Homo sapiens, MDA-MB-231, 24 h, MTT, 24 h; read-out: MDA-MB-231 cell viability IC50, 24 h
PARAMETER MEASURED: IC50 (µM)
Provide the reading as a plain figure in µM.

Query: Would you kindly share the measured IC50 for NC(=O)c1c(NC(=S)NC(=O)c2cccc(C(F)(F)F)c2)sc2c1CCN(C(=O)C1CC1)C2 [Compound 7j] ?
Result: 7.37

###

Measured IC50, listed per entry for reference.
- MEASURED ON: PAK1 (Homo sapiens)
- Sequence (Q13153 whole entry): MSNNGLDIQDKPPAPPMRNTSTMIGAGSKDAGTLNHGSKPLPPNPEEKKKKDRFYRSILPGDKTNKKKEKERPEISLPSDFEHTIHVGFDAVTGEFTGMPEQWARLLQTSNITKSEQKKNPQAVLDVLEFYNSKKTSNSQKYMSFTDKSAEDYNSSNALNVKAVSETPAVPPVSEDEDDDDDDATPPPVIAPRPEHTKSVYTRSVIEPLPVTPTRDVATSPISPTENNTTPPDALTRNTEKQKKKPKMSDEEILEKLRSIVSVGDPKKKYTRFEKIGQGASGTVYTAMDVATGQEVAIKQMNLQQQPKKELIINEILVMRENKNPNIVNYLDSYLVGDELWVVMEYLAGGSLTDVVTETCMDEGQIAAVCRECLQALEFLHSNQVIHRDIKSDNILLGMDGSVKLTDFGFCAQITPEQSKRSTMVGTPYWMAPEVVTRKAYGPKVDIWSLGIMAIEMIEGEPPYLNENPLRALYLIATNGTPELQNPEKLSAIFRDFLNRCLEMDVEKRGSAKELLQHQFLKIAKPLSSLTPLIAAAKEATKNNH
- MEASUREMENT DESCRIPTION: PAK1 enzymatic assay (Kinase-Glo Plus / ADP-Glo luminescence)
- Format: biochemical
- CONDITIONS: tested in triplicate, mean ± SD; 50 µM ATP; read-out: Kinase inhibitory activity (IC50, μM) PAK1
Provide the reading as a plain figure in µM.

Query: What is its IC50 for PAK1 (Homo sapiens)? Entry: CC(C)(C)OC(=O)N1CCc2c(sc(NC(=S)NC(=O)c3ccccc3)c2C(N)=O)C1 [Compound 5a]
Result: 7.64

Query: Please do the same for NC(=O)c1c(NC(=S)NC(=O)c2cccc(C(F)(F)F)c2)sc2c1CCN(C(=O)C1CCC1)C2 [Compound 7k] as well.
Result: 0.68

Query: Please do the same for CC(=O)N1CCc2c(sc(NC(=S)NC(=O)c3cccc(C(F)(F)F)c3)c2C(N)=O)C1 [Compound 7d] as well.
Result: 1.15

Query: Please do the same for CC(C)(C)OC(=O)N1CCc2c(sc(NC(=S)NC(=O)c3ccccc3Cl)c2C(N)=O)C1 [Compound 5k] as well.
Result: 8.65

Query: Please do the same for Cc1cccc(C(=O)NC(=S)Nc2sc3c(c2C(N)=O)CCN(C(=O)OC(C)(C)C)C3)c1 [Compound 5d] as well.
Result: 4.32

Query: Please do the same for NC(=O)c1c(NC(=S)NC(=O)c2cccc(C(F)(F)F)c2)sc2c1CCN(C(=O)C1CC1)C2 [Compound 7j] as well.
Result: 0.21

Query: Please do the same for NC(=O)c1c(NC(=S)NC(=O)c2cccc(C(F)(F)F)c2)sc2c1CCN(C(=O)C1CCCCC1)C2 [Compound 7m] as well.
Result: 4.55

Query: Please do the same for CC(C)(C)OC(=O)N1CCc2c(sc(NC(=S)NC(=O)c3cccc(Cl)c3Cl)c2C(N)=O)C1 [Compound 5o] as well.
Result: 7.43

Query: Please do the same for CC(C)(C)OC(=O)N1CCc2c(sc(NC(=S)NC(=O)c3cccc(C(F)(F)F)c3)c2C(N)=O)C1 [Compound 5m] as well.
Result: 2.02

Query: Please do the same for NC(=O)c1c(NC(=S)NC(=O)c2cccc(C(F)(F)F)c2)sc2c1CCN(C(=O)C1CCOCC1)C2 [Compound 7n] as well.
Result: 4.87

Query: Please do the same for NC(=O)c1c(NC(=S)NC(=O)c2cccc(C(F)(F)F)c2)sc2c1CCN(C(=O)C1CCCC1)C2 [Compound 7l] as well.
Result: 1.09

Query: Please do the same for Cc1ccccc1C(=O)NC(=S)Nc1sc2c(c1C(N)=O)CCN(C(=O)OC(C)(C)C)C2 [Compound 5c] as well.
Result: 6.21

Query: Please do the same for CC(C)CC(=O)N1CCc2c(sc(NC(=S)NC(=O)c3cccc(C(F)(F)F)c3)c2C(N)=O)C1 [Compound 7f] as well.
Result: 3.87

Query: Please do the same for CC(C)(C)OC(=O)N1CCc2c(sc(NC(=S)NC(=O)c3ccc(Cl)cc3)c2C(N)=O)C1 [Compound 5j] as well.
Result: 9.12

Query: Please do the same for Cc1ccc(C(=O)NC(=S)Nc2sc3c(c2C(N)=O)CCN(C(=O)OC(C)(C)C)C3)cc1 [Compound 5b] as well.
Result: 7.28

All values here come from paper PMC7470115.
